Every entry's value here was drawn from patent US11247998B2.

Experiment: Pharmacokinetics assay in rats after intragastrical administration (LC/MS/MS of plasma)
Type: in vivo
Conditions: both sexes, rat, plasma, po, SD rats, 2 mg/kg, read-out: Plasma concentration Cmax

{"columns": ["structure-smiles", "Cmax [ng/mL]"],
 "data": [
  ["C[C@@H](NC(=O)c1cnn2c1CN(C(=O)Nc1ccc(F)c(F)c1)CC2)C(F)(F)F", 661],
  ["C[C@@H](NC(=O)c1cnn2c1CN(C(=O)Nc1cc(F)c(F)c(F)c1)CC2)C(F)(F)F", 425],
  ["C[C@H]1Cn2cnc(C(=O)N[C@H](C)C(F)(F)F)c2CN1C(=O)Nc1ccc(F)c(C#N)c1", 597],
  ["C[C@@H]1CN(C(=O)Nc2ccc(F)c(C#N)c2)Cc2c(C(=O)N[C@H](C)C(F)(F)F)ncn21", 462],
  ["C[C@@H](NC(=O)c1ncn2c1CN(C(=O)Nc1cc(F)c(F)c(F)c1)CC2)C(F)(F)F", 640],
  ["C[C@H]1Cn2ncc(C(=O)N[C@H](C)C(F)(F)F)c2CN1C(=O)Nc1ccc(F)c(F)c1", 1080],
  ["C[C@@H]1CN(C(=O)Nc2ccc(F)c(C#N)c2)Cc2c(C(=O)N[C@H](C)C(F)(F)F)nnn21", 509],
  ["C[C@@H]1CN(C(=O)Nc2ccc(F)c(F)c2)Cc2c(C(=O)N[C@H](C)C(F)(F)F)nnn21", 433],
  ["C[C@H]1Cn2cnc(C(=O)N[C@H](C)C(F)(F)F)c2CN1C(=O)Nc1ccc(F)c(F)c1", 629]
]}
